# hCD71:HSA values compiled below
target: T1, recombinant biotinylated human CD71 extracellular domain (human, UniProt P02786 89-760, biotinylated); test: solution ELISA, signal ratio to HSA
T1 construct: extracellular domain; also called hCD71; huCD71 ECD
T1 sequence (P02786 other isoform, or with tags, fused parts or gaps): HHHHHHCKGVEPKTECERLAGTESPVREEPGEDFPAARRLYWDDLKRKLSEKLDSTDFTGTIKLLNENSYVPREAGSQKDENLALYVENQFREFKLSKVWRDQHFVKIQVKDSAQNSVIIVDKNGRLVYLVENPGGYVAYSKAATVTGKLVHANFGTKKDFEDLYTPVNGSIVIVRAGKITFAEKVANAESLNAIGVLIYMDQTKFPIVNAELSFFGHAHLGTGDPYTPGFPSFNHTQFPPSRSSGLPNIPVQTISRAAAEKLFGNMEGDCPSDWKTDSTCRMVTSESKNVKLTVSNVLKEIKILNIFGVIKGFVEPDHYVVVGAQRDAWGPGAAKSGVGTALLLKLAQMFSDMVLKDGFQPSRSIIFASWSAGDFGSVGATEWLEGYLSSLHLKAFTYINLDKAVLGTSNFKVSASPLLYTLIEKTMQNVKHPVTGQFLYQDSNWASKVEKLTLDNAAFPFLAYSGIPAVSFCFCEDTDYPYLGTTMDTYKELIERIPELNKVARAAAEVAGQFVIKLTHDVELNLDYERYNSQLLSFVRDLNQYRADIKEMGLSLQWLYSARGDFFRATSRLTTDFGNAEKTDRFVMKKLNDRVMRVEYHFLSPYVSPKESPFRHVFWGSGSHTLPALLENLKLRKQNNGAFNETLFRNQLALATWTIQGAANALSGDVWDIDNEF
// keep it numeric: no unit symbol after the value

Worked examples, 3 binders total:
{"columns": ["BINDER", "REPORTED_MEASUREMENT"],
 "data": [
  ["SEQ ID NO 154 (designed binder, FN3 domain) MLPAPKNLVVSRVTEDSARLSWTAPDAAFDSFYIAYAEPRPDGEAIGLWVPGSERSYDLTGLKPGTEYSVLIHGVKGGLLSSPLIAHFTT", 33.7],
  ["SEQ ID NO 137 (designed binder, FN3 domain) MLPAPKNLVVSRVTEDSARLSWTAPDAAFDSFYIAYAEPRPDGEAIVLDVPGSERSYDLTGLKPGTEYSVLIHGVKGGLLSSPLVAEFTT", 268],
  ["SEQ ID NO 136 (designed binder, FN3 domain) MLPAPKNLVVSRVTEDSARLSWTAPDAAFDSFFIGYLEPQPPGEAIWLHVPGSERSYDLTGLKPGTEYNVTIQGVKGGFPSIPLIAIFTT", 155]
]}

Value lookup for hCD71:HSA; key = SEQ ID NO 146 (designed binder, FN3 domain) MLPAPKNLVVSRVTEDSARLSWTAPDAAFDSFYIAYAEPRPDGEAITLHVPGSERSYDLTGLKPGTEYSVLIHGVKGGLLSSPLSAIFTT
63.7

# iterate: SEQ ID NO 200 (designed binder, FN3 domain) MLPAPKNLVVSRVTEDSARLSWTAPDAAFDSFYIAYAEPRPDGEAIWLEVPGSERSYDLTGLKPGTEYSVLIHGVKGGLLSSPLVADFTT
51.6

# iterate: SEQ ID NO 118 (designed binder, FN3 domain) MLPAPKNLVVSRVTEDSARLSWTAPDAAFDSFYIAYAEPRPDGEAIWLVVPGSERSYDLTGLKPGTEYSVLIHGVKGGLLSSPLVASFTT
120

# iterate: SEQ ID NO 180 (designed binder, FN3 domain) MLPAPKNLVVSRVTEDSARLSWTAPDAAFDSFYIAYAEPRPDGEAIALLVPGSERSYDLTGLKPGTEYSVLIHGVKGGLLSSPLVAQFTT
61.6

# iterate: SEQ ID NO 115 (designed binder, FN3 domain) MLPAPKNLVVSRVTEDSARLSWTAPDAAFDSFYIAYAEPRPDGEAIELHVPGSERSYDLTGLKPGTEYSVLIHGVKGGLLSSPLFTT
20.1

# iterate: SEQ ID NO 188 (designed binder, FN3 domain) MLPAPKNLVVSRVTEDSARLSWTAPDAAFDSFYIAYAEPRPDGEAIGLGVPGSERSYDLTGLKPGTEYSVLIHGVKGGLLSSPLDASFTT
13.3

Origin of measurements: patent US20220332795A1
